All values here come from PubChem BioAssay (NCI).

Tested on: EKVX NSCLC
Protocol notes: NCI tumour cell line growth inhibition, 48 h
Exercise: for every item that follows, state its recorded TGI.

In plain terms, CCc1cccc(CC)c1NC(=O)CC1SC(N)=NC1=O (centres undefined) has a documented TGI of > 100 µM

In plain terms, NC(=N\N=C/c1ccc(Cl)cc1Cl)/C(N)=N\N=C/c1ccc(Cl)cc1Cl has a documented TGI of > 100 µM

In plain terms, Cn1c(NCC(CN2CCCC2)OC(=O)c2ccccc2)cc(=O)n(C)c1=O (centres undefined) has a documented TGI of > 100 µM

In plain terms, O=C1Oc2cc3c(c4cccc1c24)OCN(c1ccccc1)C3 has a documented TGI of > 100 µM

In plain terms, CN(C)CCN(C)C(=O)C1CCCN1C(=O)OCc1ccccc1 (centres undefined) has a documented TGI of > 100 µM

In plain terms, CO[C@H]1O[C@@H]2OC3(C)CCC4[C@H](C)CCC([C@H]1C)[C@]42OO3 (some centres undefined) has a documented TGI of > 100 µM

In plain terms, CC(C)CC(NC=O)C(=O)NC(Cc1ccccc1)NC(=O)CNC(=O)C(C)NC(=O)C(N)Cc1ccc(O)cc1 (centres undefined) has a documented TGI of > 100 µM

In plain terms, C=CC(OC(=O)C(C)C)c1ccc(OC(=O)C(C)C)cc1 (centres undefined) has a documented TGI of 39.3 µM

In plain terms, CCCCOC(=O)NC(Nc1ccc(S(=O)(=O)Nc2ncccn2)cc1)(C(F)(F)F)C(F)(F)F has a documented TGI of > 100 µM

In plain terms, CCCCCCCC(CC(=O)NC(CO)C(=O)NC(CO)CC(C)C)OC(=O)CC(CCCCCCC)OC(=O)CC(CCCCCCC)OC1OC(C)C(O)C(OC2OC(C)C(O)C(O)C2O)C1O (centres undefined) has a documented TGI of 41.8 µM

In plain terms, Cc1cccc2c1c(=O)c1c(O)cc3c(c1n2C)C=CC(C)(C)O3 has a documented TGI of > 100 µM

In plain terms, O=P(CCOc1ccccc1OCCP(=O)(c1ccccc1)c1ccc2c(c1)OCCOCCOCCOCCO2)(c1ccccc1)c1ccc2c(c1)OCCOCCOCCOCCO2 (centres undefined) has a documented TGI of > 100 µM

In plain terms, COc1ncc(-c2ccc3nccc(C#CCN4CCN(S(C)(=O)=O)CC4)c3c2)cc1NS(=O)(=O)c1ccc(F)cc1F has a documented TGI of 12.4 µM

In plain terms, N#Cc1c2ccccc2c2nnc3ccccc3n12 has a documented TGI of 72.1 µM

In plain terms, CCOC(=O)/C(=C/c1ccccc1Br)P(=O)(OCC)OCC has a documented TGI of 8.16 µM

In plain terms, C=C(CCC/C(C)=C/C=C/[C@H](C)CCCc1ccoc1)C[C@@H]1OC(=O)[C@H](C)[C@@H]1O has a documented TGI of 21 µM

In plain terms, C/C(=N/NC(=S)N1CC2CCC(CC2)C1)c1cnccn1 has a documented TGI of 12.3 µM

In plain terms, CN1CCN(c2ccc3[nH]c(C4=C(O)C(=O)[C@@H]5C(=C4O)N=C(CO)N5C)nc3n2)CC1 has a documented TGI of > 100 µM

In plain terms, O=C(O)CCC1CCc2cccc(OCC(=O)O)c2C1=O (centres undefined) has a documented TGI of > 100 µM

----------
System: HT29 colon
Protocol notes: NCI tumour cell line growth inhibition, 48 h
Exercise: for every item that follows, state its recorded TGI.

In plain terms, O=C([O-])CCc1ccccc1.O=C([O-])CCc1ccccc1.O=C([O-])CCc1ccccc1.O=C([O-])CCc1ccccc1.[Mo+2].[Mo+2] has a documented TGI of > 100 µM

In plain terms, Cn1nc(-c2ccccc2)c2c(-c3ccccc3)c3cc(Cl)ccc3nc21 has a documented TGI of > 100 µM

In plain terms, O=C1Nc2ccccc2/C1=C\c1c(-c2ccccc2)nc2n1CCS2 has a documented TGI of 39.9 µM

In plain terms, COC1=CC(=O)c2c(cc3c(c2O)-c2c(OC)cc4cc5c(c(O)c4c2OC(=O)CC(C)(O)C3)C(=O)CC(C)(O)C5)C1=O (centres undefined) has a documented TGI of 6.59 µM

In plain terms, N#CCC1C2CC3C(C2=O)C13 (centres undefined) has a documented TGI of > 100 µM

In plain terms, O=c1[nH]c2ccccc2n2cc3ccccc3c12 has a documented TGI of > 100 µM

In plain terms, Cc1cnc2c(c1)C(=O)N(c1ccc([N+](=O)[O-])cc1)S2(=O)=O has a documented TGI of > 100 µM

In plain terms, CC(=O)O[C@H]1CC[C@@]2(C)C(=CC[C@@H]3[C@@H]2CC[C@](C)(c2nnc(C)o2)[C@H]3CC#N)C1 has a documented TGI of > 100 µM

In plain terms, O=C(Nc1ccc(I)cc1)c1cccc([N+](=O)[O-])c1O has a documented TGI of > 100 µM

----------
System: SNB-19 CNS
Protocol notes: NCI tumour cell line growth inhibition, 48 h
Exercise: for every item that follows, state its recorded TGI.

In plain terms, O=C1Nc2ccccc2/C1=C\c1c(-c2ccccc2)nc2n1CCS2 has a documented TGI of 91 µM

In plain terms, O=C(O)c1ccc(Oc2nc3ccccc3s2)cc1 has a documented TGI of > 100 µM

In plain terms, CC(=O)SC(SC(C)=O)SC(C)=O has a documented TGI of > 100 µM

In plain terms, Oc1ccc(Cc2ccc(O)c(C3CC(c4ccc(Cl)cc4)=NN3)c2)cc1C1CC(c2ccc(Cl)cc2)=NN1 (configuration not stated) has a documented TGI of > 43.6 µM

In plain terms, CC(Cc1cccc2c1Nc1ccccc1S2)N(C)CCO (configuration not stated) has a documented TGI of > 100 µM

In plain terms, COC1=CC(=O)OC(/C=C(C)/C=C/C2=C(C)CCCC2(C)C)C1 (configuration not stated) has a documented TGI of > 100 µM

In plain terms, FC(F)(F)c1ccc(-c2ncc(-c3ccc(C(F)(F)F)cc3)c(NCc3cc(C(F)(F)F)cc(C(F)(F)F)c3)n2)cc1 has a documented TGI of > 100 µM

In plain terms, Cc1cc(=O)oc2cc(OC(=O)Nc3ccccc3)ccc12 has a documented TGI of > 100 µM

In plain terms, O=C1NC(=O)C(c2ccccc2)=C1Nc1ccccc1 has a documented TGI of > 25 µM

In plain terms, CCOC(=O)/C(=C/c1ccccc1Br)P(=O)(OCC)OCC has a documented TGI of 6.21 µM

In plain terms, O=C(Cc1ccccc1)NN1C(=O)C(Cl)C1c1cccc([N+](=O)[O-])c1 (configuration not stated) has a documented TGI of > 100 µM

In plain terms, O=C(Cc1ccc(Nc2ccnc(C(F)(F)F)c2)cc1)N/N=C/c1ccccc1O has a documented TGI of > 100 µM

In plain terms, NC1=NC2=C(CCCC2)C(c2cccs2)S1 (configuration not stated) has a documented TGI of > 100 µM

In plain terms, Cc1cc(C)c(S(=O)(=O)N(CCCN)OCCON(CCCN)S(=O)(=O)c2c(C)cc(C)cc2C)c(C)c1 has a documented TGI of 4.37 µM

In plain terms, O=C(N/C=C/C=C/Sc1ccccc1)OCc1ccccc1 has a documented TGI of > 100 µM

In plain terms, Cc1c(-c2nc(N)c(C#N)c(N)c2C#N)c(=O)oc2ccccc12 has a documented TGI of > 100 µM

In plain terms, [N-]=[N+]=CC(=O)OCC1NC(=O)C(COC(=O)C=[N+]=[N-])NC1=O (configuration not stated) has a documented TGI of > 100 µM

In plain terms, CCCCCCCc1cscc1-c1cscc1Br has a documented TGI of > 100 µM

In plain terms, CC(=O)OCC1OC([Se-])C(OC(C)=O)C(OC(C)=O)C1OC(C)=O.N#CCC[PH+](CCC#N)CCC#N.[Au+] (configuration not stated) has a documented TGI of > 77.9 µM

In plain terms, Cc1cc(C(O)(c2ccc(Nc3ccccc3)cc2)c2ccc(Nc3ccc(S(=O)(=O)O)cc3)cc2)ccc1N (configuration not stated) has a documented TGI of 3.48 µM

In plain terms, CCc1cccc(CC)c1NC(=O)CC1SC(N)=NC1=O (configuration not stated) has a documented TGI of > 100 µM

In plain terms, O=C1C=CC(=O)N1c1ccc(I)cc1 has a documented TGI of > 61.5 µM

----------
Tested on: COLO 205 colon
Protocol notes: NCI tumour cell line growth inhibition, 48 h; in the data active = GI50 below about 0.43 µM; inactive = the rest
Outcome (select one): label 1 = active, label 0 = inactive

Enquiry: Short answer needed: outcome of this test for COc1ccc(C2CC(c3ccc4ccccc4c3)=NN2c2nc(O)c(C3=c4cc(OC)ccc4=NC3=O)s2)cc1 (stereo not given) ?
Return: label 1

Enquiry: Short answer needed: outcome of this test for O=C(Nc1ccc(I)cc1)c1cccc([N+](=O)[O-])c1O ?
Return: label 0

Enquiry: Short answer needed: outcome of this test for O=C(Cc1ccc(Nc2ccnc(C(F)(F)F)c2)cc1)N/N=C/c1ccccc1O ?
Return: label 0

Enquiry: Short answer needed: outcome of this test for N#Cc1c2ccccc2c2nnc3ccc(C(F)(F)F)cc3n12 ?
Return: label 0

Enquiry: Short answer needed: outcome of this test for CCC(C)(C)[C@H](NC(=O)[C@H]1CCCCN1C)C(=O)N(C)[C@H](C[C@@H](OC(C)=O)c1nc(C(=O)N[C@@H](Cc2ccccc2)C[C@H](C)C(=O)O)cs1)C(C)C ?
Return: label 1
